Data provenance is ChEMBL document CHEMBL4706533.

assay_explanation: Metabolic stability in dog liver microsomes assessed as parent compound remaining; also: time not given here
Assay type: ADME, Canis lupus familiaris, Microsome
Recorded measurements of Stabilty, one per entry

// query Which Stabilty value belongs to Cl.OCCC/C(=C(\c1ccc(O)cc1)c1ccc(C2CCNCC2)cc1)c1ccccc1 ?
// result 68.3%

// query Which Stabilty value belongs to Cl.OCCC/C(=C(\c1ccc(O)cc1)c1ccc(C2CCN(C3CC3)CC2)cc1)c1ccccc1 ?
// result 91.5%

// query Which Stabilty value belongs to CC(C)N1CCC(c2ccc(/C(=C(/CCCO)c3ccc(F)cc3F)c3ccc(O)cc3)cc2)CC1.Cl ?
// result 91.8%

// query Which Stabilty value belongs to CC(C)N1CCC(c2ccc(/C(=C(/CCCO)c3ccccc3)c3ccc(O)cc3)cc2)CC1.Cl ?
// result 54.3%

// query Which Stabilty value belongs to CC(C)N1CCC(c2ccc(/C(=C(/CCCO)c3ccc(F)cc3)c3ccc(O)cc3)cc2)CC1.Cl ?
// result 83.2%
